- Test system: Candida parapsilosis
- experimental protocol: Antifungal activity against Candida parapsilosis after 24 hrs by serial dilution method
- Type: functional
- assay setup: Lodderomyces parapsilosis
Listed next: entries and their corresponding MIC80.
Report as a plain number; the unit µg/mL is understood.

{"compound": "Cc1ccc(CON=C2CCN(CC(O)(Cn3cncn3)c3ccc(F)cc3F)CC2)cc1 (racemic)", "value unit": "µg/mL", "MIC80": 64}

MIC80 reading for OC(CN1CCC(=NOCc2ccc(C(F)(F)F)cc2)CC1)(Cn1cncn1)c1ccc(F)cc1F (racemic) : 64

MIC80 reading for OC(CN1CCC(=NOCc2cccc(C(F)(F)F)c2)CC1)(Cn1cncn1)c1ccc(F)cc1F (racemic) : 64

MIC80 reading for O=[N+]([O-])c1cccc(CON=C2CCN(CC(O)(Cn3cncn3)c3ccc(F)cc3F)CC2)c1 (racemic) : 0.0625

MIC80 reading for OC(CN1CCC(=NOCc2cccc(F)c2)CC1)(Cn1cncn1)c1ccc(F)cc1F (racemic) : 0.016

MIC80 reading for OC(CN1CCC(=NOCc2cccc(Cl)c2)CC1)(Cn1cncn1)c1ccc(F)cc1F (racemic) : 0.0625

MIC80 reading for CCC(C)n1ncn(-c2ccc(N3CCN(c4ccc(OCC5COC(Cn6cncn6)(c6ccc(Cl)cc6Cl)O5)cc4)CC3)cc2)c1=O (stereo not drawn) : 0.0625

MIC80 reading for CCCc1ccc(CON=C2CCN(CC(O)(Cn3cncn3)c3ccc(F)cc3F)CC2)cc1 (racemic) : 64

MIC80 reading for OC(Cn1cncn1)(Cn1cncn1)c1ccc(F)cc1F : 0.25

MIC80 reading for OC(CN1CCC(=NOCc2ccc(Cl)cc2)CC1)(Cn1cncn1)c1ccc(F)cc1F (racemic) : 0.016

MIC80 reading for COc1cccc(CON=C2CCN(CC(O)(Cn3cncn3)c3ccc(F)cc3F)CC2)c1 (racemic) : 64

MIC80 reading for C[C@@H](c1ncncc1F)[C@](O)(Cn1cncn1)c1ccc(F)cc1F : 0.004

MIC80 reading for OC(CN1CCC(=NOCc2ccc(F)cc2)CC1)(Cn1cncn1)c1ccc(F)cc1F (racemic) : 0.004

* * *

- System: Candida albicans
- experimental protocol: Antifungal activity against Candida albicans after 24 hrs by serial dilution method
- Type: functional
Listed next: entries and their corresponding MIC80.

MIC80 reading for Cc1ccc(CON=C2CCN(CC(O)(Cn3cncn3)c3ccc(F)cc3F)CC2)cc1 (racemic) : 64 µg/mL

MIC80 reading for CCc1ccc(CON=C2CCN(CC(O)(Cn3cncn3)c3ccc(F)cc3F)CC2)cc1 (racemic) : 16 µg/mL

MIC80 reading for C=Cc1ccc(CON=C2CCN(CC(O)(Cn3cncn3)c3ccc(F)cc3F)CC2)cc1 (racemic) : 16 µg/mL

MIC80 reading for OC(CN1CCC(=NOCc2ccc(Cl)cc2Cl)CC1)(Cn1cncn1)c1ccc(F)cc1F (racemic) : 0.016 µg/mL

MIC80 reading for OC(CN1CCC(=NOCc2ccc(Cl)c(Cl)c2)CC1)(Cn1cncn1)c1ccc(F)cc1F (racemic) : 0.25 µg/mL

* * *

- Test system: Pichia kudriavzevii
- experimental protocol: Antifungal activity against Candida krusei after 24 hrs by serial dilution method
- Type: functional
property label: MIC80 (mg/L)
Report as a plain number; the unit mg/L is understood.

Examples from the recorded data:
{"molecule": "O=[N+]([O-])c1ccc(CON=C2CCN(CC(O)(Cn3cncn3)c3ccc(F)cc3F)CC2)cc1 (racemic)", "target or system": "Pichia kudriavzevii", "value measured": 0.25}
{"molecule": "OC(CN1CCC(=NOCc2ccccc2F)CC1)(Cn1cncn1)c1ccc(F)cc1F (racemic)", "target or system": "Pichia kudriavzevii", "value measured": 0.25}
{"molecule": "OC(CN1CCC(=NOCc2ccc3ccccc3c2)CC1)(Cn1cncn1)c1ccc(F)cc1F (racemic)", "target or system": "Pichia kudriavzevii", "value measured": 0.25}

MIC80 reading for OC(CN1CCC(=NOCc2cccc(C(F)(F)F)c2)CC1)(Cn1cncn1)c1ccc(F)cc1F (racemic) : 64
